Target: XO (isolated from bovine milk) (Bos taurus, UniProt P80457)
Sequence (P80457 whole entry): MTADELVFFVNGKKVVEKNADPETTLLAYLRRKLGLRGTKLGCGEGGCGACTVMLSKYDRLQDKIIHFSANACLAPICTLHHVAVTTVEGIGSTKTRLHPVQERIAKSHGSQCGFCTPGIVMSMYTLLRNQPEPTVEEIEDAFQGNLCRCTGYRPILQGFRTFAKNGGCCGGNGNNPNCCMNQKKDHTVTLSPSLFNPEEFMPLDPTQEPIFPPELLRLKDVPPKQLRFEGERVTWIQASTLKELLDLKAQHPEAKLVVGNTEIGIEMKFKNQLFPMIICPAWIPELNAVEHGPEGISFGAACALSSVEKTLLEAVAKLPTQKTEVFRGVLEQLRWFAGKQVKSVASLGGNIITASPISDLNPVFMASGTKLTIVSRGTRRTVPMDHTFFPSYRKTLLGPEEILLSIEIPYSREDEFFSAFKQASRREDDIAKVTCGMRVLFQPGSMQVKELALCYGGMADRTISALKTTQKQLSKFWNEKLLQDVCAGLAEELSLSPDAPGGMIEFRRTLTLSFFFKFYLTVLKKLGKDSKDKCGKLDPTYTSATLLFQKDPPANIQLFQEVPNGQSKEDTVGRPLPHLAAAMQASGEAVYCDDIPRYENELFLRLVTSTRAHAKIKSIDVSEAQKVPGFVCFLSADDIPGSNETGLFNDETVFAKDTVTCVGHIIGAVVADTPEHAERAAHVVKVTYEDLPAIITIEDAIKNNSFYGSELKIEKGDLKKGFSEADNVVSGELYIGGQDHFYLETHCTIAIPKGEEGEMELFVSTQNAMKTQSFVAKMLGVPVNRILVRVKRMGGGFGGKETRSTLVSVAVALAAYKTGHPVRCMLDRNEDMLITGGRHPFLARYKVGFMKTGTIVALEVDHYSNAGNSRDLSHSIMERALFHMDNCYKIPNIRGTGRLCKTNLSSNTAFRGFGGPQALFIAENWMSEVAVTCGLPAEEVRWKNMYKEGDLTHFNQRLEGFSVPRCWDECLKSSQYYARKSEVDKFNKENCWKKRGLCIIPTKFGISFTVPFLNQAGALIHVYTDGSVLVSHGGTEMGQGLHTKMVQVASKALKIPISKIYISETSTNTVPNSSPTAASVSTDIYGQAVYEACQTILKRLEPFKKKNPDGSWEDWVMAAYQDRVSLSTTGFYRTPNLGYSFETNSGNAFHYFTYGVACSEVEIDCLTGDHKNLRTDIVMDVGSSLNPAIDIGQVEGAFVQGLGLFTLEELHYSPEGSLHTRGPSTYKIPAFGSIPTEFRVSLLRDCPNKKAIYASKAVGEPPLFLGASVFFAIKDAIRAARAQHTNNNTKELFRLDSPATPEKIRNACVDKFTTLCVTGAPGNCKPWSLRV
Assay: Fluorescence titrations
Format: binding
Conditions: binding constant K, 310 K
observedProperty: pKd
Kindly note that pKd refers to -log10 of the concentration in mol/L and answer with the value alone.

Noted for O=C1/C(=C/c2ccc(O)c(O)c2)Oc2cc(O)cc(O)c21 [AUR, Aureusidin] : its pKd reads 4.18

----------
Molecular target: XO (isolated from bovine milk) (Bos taurus)
Experiment: Fluorescence titrations
Format: binding
Details: binding constant K, 304 K
observedProperty: Kd

Please fill in: Kd reported for O=C1/C(=C/c2ccc(O)c(O)c2)Oc2cc(O)cc(O)c21 = 70 µM
